Tested on: Vero E6 infected with SARS-CoV-2
Assay: inhibition of SARS-CoV-2 cytopathic effect; higher = more antiviral protection, active = above 15
Settings: 10000 nM; 48 h
READOUT NAME: inhibition of SARS-CoV-2 cytopathic effect (%)
Your answer is read as %, so omit the unit and give the number.

Inquiry: Give the reported inhibition of SARS-CoV-2 cytopathic effect for `C=C1/C(=C\C=C2/CCC[C@]3(C)[C@@H]([C@H](C)/C=C/[C@H](C)C(C)C)CC[C@@H]23)C[C@@H](O)C[C@@H]1O` (system: Vero E6 infected with SARS-CoV-2).
Reply text: 2.69

Inquiry: Give the reported inhibition of SARS-CoV-2 cytopathic effect for `CC(C)Nc1cccnc1N1CCN(C(=O)c2cc3cc(NS(C)(=O)=O)ccc3[nH]2)CC1` (system: Vero E6 infected with SARS-CoV-2).
Reply text: 2.87

Inquiry: Give the reported inhibition of SARS-CoV-2 cytopathic effect for `C[C@]1(COc2ccc(N3CCC(Oc4ccc(OC(F)(F)F)cc4)CC3)cc2)Cn2cc([N+](=O)[O-])nc2O1` (system: Vero E6 infected with SARS-CoV-2).
Reply text: 1.84

Inquiry: Give the reported inhibition of SARS-CoV-2 cytopathic effect for `CCCN(CCC)C(=O)Cc1c(-c2ccc(Cl)cc2)nc2ccc(Cl)cn12` (system: Vero E6 infected with SARS-CoV-2).
Reply text: -3.74

Inquiry: Give the reported inhibition of SARS-CoV-2 cytopathic effect for `N#Cc1cc(F)cc(-c2nc(-c3ccc(F)cn3)no2)c1` (system: Vero E6 infected with SARS-CoV-2).
Reply text: 2.97

Inquiry: Give the reported inhibition of SARS-CoV-2 cytopathic effect for CC(O)CC(=O)O (stereo not drawn) [beta-hydroxybutyrate] (system: Vero E6 infected with SARS-CoV-2).
Reply text: -1.85

Inquiry: Give the reported inhibition of SARS-CoV-2 cytopathic effect for `CCc1cc(-c2[nH]nc(C)c2-c2ccc3c(c2)OCCO3)c(O)cc1O` (system: Vero E6 infected with SARS-CoV-2).
Reply text: -2.59

Inquiry: Give the reported inhibition of SARS-CoV-2 cytopathic effect for `C[C@H]1COc2c(C3(N)CC3)c(F)cc3c(=O)c(C(=O)O)cn1c23` (system: Vero E6 infected with SARS-CoV-2).
Reply text: -3.15
